pIC50: −log10 of the molar value.
// compounds with pIC50 on Methionine aminopeptidase 2 (Homo sapiens, UniProt P50579), multi-source literature
Sequence (P50579 whole entry, species assumed): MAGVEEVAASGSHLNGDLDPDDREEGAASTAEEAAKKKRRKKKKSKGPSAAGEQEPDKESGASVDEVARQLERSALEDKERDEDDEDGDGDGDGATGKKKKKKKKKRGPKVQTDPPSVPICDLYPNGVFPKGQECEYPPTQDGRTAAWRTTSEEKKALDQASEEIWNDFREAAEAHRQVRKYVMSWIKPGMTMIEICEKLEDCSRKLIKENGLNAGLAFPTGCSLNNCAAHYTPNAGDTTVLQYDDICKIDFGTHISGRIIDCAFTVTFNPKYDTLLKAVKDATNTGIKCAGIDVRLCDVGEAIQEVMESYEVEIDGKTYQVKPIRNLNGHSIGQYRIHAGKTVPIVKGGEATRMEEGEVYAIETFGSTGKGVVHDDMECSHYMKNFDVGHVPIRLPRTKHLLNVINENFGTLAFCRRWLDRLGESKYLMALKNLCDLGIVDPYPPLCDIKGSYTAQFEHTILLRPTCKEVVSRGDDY

Use these answered entries as a reference point.
# compound, system, pIC50
measured = [
    ("c1ccc(-c2ccccc2OC[C@H]2CCCN2c2ncnc3[nH]cnc23)cc1", "Methionine aminopeptidase 2 (Homo sapiens, UniProt P50579)", "5.00 to 6.00"),
    ("c1ccc2c(OC[C@H]3CCCN3c3ncnc4ncccc34)cccc2c1", "Methionine aminopeptidase 2 (Homo sapiens, UniProt P50579)", "< 5.00"),
    ("NCCCCOC(=O)N1CCc2cccc(OC[C@H]3CCCN3c3ccnc4ncnn34)c2C1", "Methionine aminopeptidase 2 (Homo sapiens, UniProt P50579)", "6.00 to 8.00"),
    ("CCOC(=O)c1cc2cc(N3CC[C@](O)(C(=O)NCc4cc(F)cc(Cl)c4)C3=O)ccc2[nH]1", "Methionine aminopeptidase 2 (Homo sapiens, UniProt P50579)", "6.00 to 8.00"),
]

Observed pIC50 on Methionine aminopeptidase 2 (Homo sapiens, UniProt P50579) for O=C(NCCCN1CCOCC1)c1cc(OC[C@H]2CCCN2c2ncnc3[nH]cnc23)c2ccccc2n1 , please.
6.00 to 8.00

Observed pIC50 on Methionine aminopeptidase 2 (Homo sapiens, UniProt P50579) for O=C(NCc1cc(F)cc(Cl)c1)[C@@]1(O)CCN(c2cnc3[nH]c(C(F)(F)F)cc3c2)C1=O , please.
6.00 to 8.00

Observed pIC50 on Methionine aminopeptidase 2 (Homo sapiens, UniProt P50579) for c1cc2c(c(OC[C@H]3CCCN3c3ncnc4[nH]cnc34)c1)CCCC2 , please.
6.00 to 8.00

Observed pIC50 on Methionine aminopeptidase 2 (Homo sapiens, UniProt P50579) for O=C1COc2cc(N3CC[C@@](O)(C(=O)NCc4cc(F)cc(Cl)c4)C3=O)ccc2N1 , please.
< 5.00

Observed pIC50 on Methionine aminopeptidase 2 (Homo sapiens, UniProt P50579) for CN(CCO)C(=O)c1cccc(N2CC[C@@](O)(C(=O)NCc3cc(F)cc(Cl)c3)C2=O)c1 , please.
5.00 to 6.00
